System: HARA
Assay: relative viability (nuclei count vs DMSO), 5 days (fraction); higher = more cells survive
Conditions: first compound 0.1581 µM
The following compounds are listed with their measured relative viability values.

{"columns": ["compound", "relative viability"],
 "data": [
  ["Nc1ccn([C@@H]2O[C@H](CO)[C@@H](O)[C@@H]2O)c(=O)n1 [Cytarabine] + CC1(C)CCC(c2ccc(Cl)cc2)=C(CN2CCN(c3ccc(C(=O)NS(=O)(=O)c4ccc(N[C@H](CCN5CCOCC5)CSc5ccccc5)c(S(=O)(=O)C(F)(F)F)c4)cc3)CC2)C1 [Navitoclax] (partner 0.5 µM)", 0.178],
  ["Nc1ccn([C@@H]2O[C@H](CO)[C@@H](O)[C@@H]2O)c(=O)n1 [Cytarabine] + O=C(CCCCCCC(=O)Nc1ccccc1)NO [Vorinostat] (partner 1 µM)", 0.458],
  ["COc1cc2nccc(Oc3ccc(NC(=O)Nc4cc(C)on4)c(Cl)c3)c2cc1OC [Tivozanib] + C[C@]1(O)C[C@@H](c2nc(-c3ccc4ccc(-c5ccccc5)nc4c3)c3c(N)nccn32)C1 [Linsitinib] (partner 1 µM)", 1.01]
]}
